Biological target: membrane TPP II (tripeptidyl peptidase II) (Rattus norvegicus, UniProt Q64560)
Construct: evaluated by measuring the activity of membrane TPP II; from tissue; host or cells: rat cerebral cortex membranes
Sequence (Q64560 whole entry): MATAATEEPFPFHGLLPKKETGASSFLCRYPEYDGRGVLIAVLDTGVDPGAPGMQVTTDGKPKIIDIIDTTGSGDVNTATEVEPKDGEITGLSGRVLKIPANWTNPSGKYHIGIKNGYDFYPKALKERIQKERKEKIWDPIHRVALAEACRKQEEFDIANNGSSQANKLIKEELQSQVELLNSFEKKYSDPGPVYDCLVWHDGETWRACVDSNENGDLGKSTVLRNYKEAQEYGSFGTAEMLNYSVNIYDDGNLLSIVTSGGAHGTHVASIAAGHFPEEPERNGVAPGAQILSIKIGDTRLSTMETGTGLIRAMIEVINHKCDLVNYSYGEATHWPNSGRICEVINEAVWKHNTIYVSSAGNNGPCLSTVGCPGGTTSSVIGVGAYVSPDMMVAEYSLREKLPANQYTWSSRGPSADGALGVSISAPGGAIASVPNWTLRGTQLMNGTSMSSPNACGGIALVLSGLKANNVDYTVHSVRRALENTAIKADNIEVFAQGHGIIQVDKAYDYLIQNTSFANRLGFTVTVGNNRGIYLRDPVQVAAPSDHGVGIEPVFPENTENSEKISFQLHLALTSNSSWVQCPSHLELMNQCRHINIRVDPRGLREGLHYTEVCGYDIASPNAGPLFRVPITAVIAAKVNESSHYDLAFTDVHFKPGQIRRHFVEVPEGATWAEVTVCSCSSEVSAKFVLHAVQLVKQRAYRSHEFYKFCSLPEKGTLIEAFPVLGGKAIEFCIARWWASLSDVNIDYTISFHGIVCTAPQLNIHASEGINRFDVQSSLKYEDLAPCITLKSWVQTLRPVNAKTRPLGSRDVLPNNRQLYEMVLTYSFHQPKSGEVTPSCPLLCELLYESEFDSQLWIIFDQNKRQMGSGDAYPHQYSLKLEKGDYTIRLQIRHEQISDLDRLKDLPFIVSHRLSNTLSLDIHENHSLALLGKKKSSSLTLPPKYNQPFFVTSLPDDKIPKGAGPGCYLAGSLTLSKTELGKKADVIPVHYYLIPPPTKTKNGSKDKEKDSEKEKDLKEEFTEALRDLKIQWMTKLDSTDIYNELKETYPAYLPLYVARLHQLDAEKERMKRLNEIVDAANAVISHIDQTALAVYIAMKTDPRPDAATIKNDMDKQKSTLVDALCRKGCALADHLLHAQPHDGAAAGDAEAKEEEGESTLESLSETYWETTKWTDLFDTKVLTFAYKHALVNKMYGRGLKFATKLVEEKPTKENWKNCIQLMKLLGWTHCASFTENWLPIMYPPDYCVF
Test: Inhibition of AAF-Amc hydrolysis by cerebral membranes (inhibition of TPP II)
Format: biochemical
Conditions: Table 2, compounds of the invention; rat cerebral cortex membranes, substrate AAF-Amc; read-out: Ki (nM), Inhibition of AAF-Amc Hydrolysis by Cerebral Membranes, compound of the invention

>  <compound>
CC[C@H](N)C(=O)N1c2ccc(O)cc2CC1C(=O)NCC(F)(F)F (mixture of isomers)

>  <unit>
nM

>  <Ki>
2.8

$$$$
